List of Kd values.
test: Binding affinity to Escherichia coli sliding clamp assessed as dissociation constant by ITC analysis
Where a SMILES comes first, the peptide text is derived from it. [ ]: non-standard residue; d: D form. The star is where a group is joined. Acryloyl(3-(3-pyridyl),E) = O=C(/C=C/c1cccnc1)*; Cha = N[C@@H](CC1CCCCC1)C(=O)O; X5 = CN(C)C(=NCC(=O)*)N(C)C
Field: numeric (µM). Do not append units.

CC(C)C[C@H](NC(=O)[C@H](CC(=O)O)NC(=O)[C@H](CC1CCCCC1)NC(=O)[C@H](CCC(N)=O)NC(=O)/C=C/c1cccnc1)C(=O)N[C@@H](Cc1ccccc1)C(=O)O ({Acryloyl(3-(3-pyridyl),E)}-Q[Cha]DLF-OH) :: 0.156

Next item in the queue.
The reported Kd of the molecule CC(C)C[C@H](NC(=O)[C@H](CC(=O)O)NC(=O)[C@H](CC1CCCCC1)NC(=O)[C@H](CCC(N)=O)NC(=O)CN=C(N(C)C)N(C)C)C(=O)N[C@@H](Cc1ccccc1)C(=O)O (X5-Q[Cha]DLF-OH) was 0.353
